test system: CCRF-CEM; experiment: Cytotoxicity against human CEM cells at 15 ug by disk diffusion assay; type: functional
inhibition zone (IZ) overview
Please format your answer as a value with the unit trailing.

Check out these entries, answers already filled in.
{"molecule": "CCCCCCCCCC[C@@H](O)[C@H]1CC[C@@H]([C@@H]2CC[C@H]([C@H](O)CCCCCCCCCC[C@@H](O)CC3=C[C@H](C)OC3=O)O2)O1", "result": "0 Zone units"}
{"molecule": "CCCCCCCCCC[C@@H](O)[C@H]1CC[C@@H]([C@H]2CC[C@H]([C@H](O)CCC[C@H](O)CCCCCCCC3=C[C@H](C)OC3=O)O2)O1", "result": "100 Zone units"}
{"molecule": "CCCCCCCCCC[C@@H](O)[C@@H]1CC[C@@H]([C@@H]2CC[C@@H]([C@H](O)CCCCCCCCCC(O)CC3=CC(C)OC3=O)O2)O1 (some centres undefined)", "result": "100 Zone units"}
{"molecule": "CCCCCCC[C@H](O)CC[C@H](O)[C@H]1CC[C@H]([C@H]2CC[C@H]([C@H](O)CCCCCCCCCC[C@@H](O)CC3=C[C@H](C)OC3=O)O2)O1", "result": "0 Zone units"}
{"molecule": "CCCCCCCCCCC(O)C1CCC(C2CCC(C(O)CCCCCCCC[C@H](O)CC3=C[C@@H](C)OC3=O)O2)O1 (some centres undefined)", "result": "200 Zone units"}

### Prompt Provide measured inhibition zone (IZ) on CCRF-CEM for CCCCCCC[C@H](O)CC[C@H](O)[C@H]1CC[C@H]([C@H]2CC[C@H]([C@@H](O)CCCCCCCCCC[C@@H](O)CC3=C[C@H](C)OC3=O)O2)O1 please.
### Response 150 Zone units

### Prompt Provide measured inhibition zone (IZ) on CCRF-CEM for CCCCCCCCCC[C@H](O)[C@H]1CC[C@@H]([C@@H]2CC[C@H]([C@H](O)CCCCCCCCCC[C@@H](O)CC3=C[C@H](C)OC3=O)O2)O1 please.
### Response 0 Zone units

### Prompt Provide measured inhibition zone (IZ) on CCRF-CEM for CCCCCCCCCC[C@H](O)[C@H]1CC[C@H]([C@H]2CC[C@H]([C@@H](O)CCCCCCCCCC[C@@H](O)CC3=C[C@H](C)OC3=O)O2)O1 please.
### Response 150 Zone units

### Prompt Provide measured inhibition zone (IZ) on CCRF-CEM for CCCCCCCCCC[C@H](O)[C@H]1CC[C@@H]([C@@H]2CC[C@H]([C@@H](O)CCCCCCCCCC[C@@H](O)CC3=C[C@H](C)OC3=O)O2)O1 please.
### Response 0 Zone units

====

inhibition zone (IZ) overview
system: L1210; assay: Cytotoxicity against mouse L1210 cells at 0.94 ug by disk diffusion assay; assay type: functional
Please format your answer as a value with the unit trailing.

{"compound": "CCCCCCCCCC[C@@H](O)[C@H]1CC[C@@H]([C@@H]2CC[C@H]([C@H](O)CCCCCCCCCC[C@@H](O)CC3=C[C@H](C)OC3=O)O2)O1", "result": "150 Zone units"}

### Prompt Provide measured inhibition zone (IZ) on L1210 for CCCCCCC[C@H](O)CC[C@H](O)[C@H]1CC[C@H]([C@H]2CC[C@H]([C@H](O)CCCCCCCCCC[C@@H](O)CC3=C[C@H](C)OC3=O)O2)O1 please.
### Response 150 Zone units

### Prompt Provide measured inhibition zone (IZ) on L1210 for CCCCCCCCCC[C@@H](O)[C@H]1CC[C@@H]([C@H]2CC[C@H]([C@H](O)CCC[C@H](O)CCCCCCCC3=C[C@H](C)OC3=O)O2)O1 please.
### Response 100 Zone units

### Prompt Provide measured inhibition zone (IZ) on L1210 for CCCCCCCCCC[C@H](O)[C@H]1CC[C@@H]([C@@H]2CC[C@H]([C@H](O)CCCCCCCCCC[C@@H](O)CC3=C[C@H](C)OC3=O)O2)O1 please.
### Response 100 Zone units

### Prompt Provide measured inhibition zone (IZ) on L1210 for CCCCCCCCCCC(O)C1CCC(C2CCC(C(O)CCCCCCCC[C@H](O)CC3=C[C@@H](C)OC3=O)O2)O1 (some centres undefined) please.
### Response 150 Zone units

### Prompt Provide measured inhibition zone (IZ) on L1210 for CCCCCCC[C@H](O)CC[C@H](O)[C@H]1CC[C@H]([C@H]2CC[C@H]([C@@H](O)CCCCCCCCCC[C@@H](O)CC3=C[C@H](C)OC3=O)O2)O1 please.
### Response 100 Zone units

### Prompt Provide measured inhibition zone (IZ) on L1210 for CCCCCCCCCC[C@H](O)[C@H]1CC[C@@H]([C@@H]2CC[C@H]([C@@H](O)CCCCCCCCCC[C@@H](O)CC3=C[C@H](C)OC3=O)O2)O1 please.
### Response 100 Zone units

### Prompt Provide measured inhibition zone (IZ) on L1210 for CCCCCCCCCC[C@H](O)[C@H]1CC[C@H]([C@H]2CC[C@H]([C@@H](O)CCCCCCCCCC[C@@H](O)CC3=C[C@H](C)OC3=O)O2)O1 please.
### Response 100 Zone units

### Prompt Provide measured inhibition zone (IZ) on L1210 for CCCCCCCCCC[C@@H](O)[C@@H]1CC[C@@H]([C@@H]2CC[C@@H]([C@H](O)CCCCCCCCCC(O)CC3=CC(C)OC3=O)O2)O1 (some centres undefined) please.
### Response 150 Zone units
